experiment: EBV LMP1-driven NF-kappaB luciferase reporter inhibitors, primary screen, cell-based, luminescence, single point (AID 504558); conditions: LMP1-induced NF-kappaB luciferase reporter cells, at 12.5 µM;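 further: 0% = neutral control wells and 100% = reference inhibitor control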
Hit rate of the full screen: of about 350,000 compounds, about 2,400 (0.69%) were called active. No stated cut-off is given here; in the data, active means inhibition above about 41%; inconclusive means no clear call, values can overlap the other calls; inactive means below that. The sample holds actives, similar compounds and a random draw of the others, so the mix is not that of the screen.
Please answer using one outcome listed in y for active, n for inactive

Prompt: Each compound tested received a call. Report the one for Cc1ccc(C(=O)OCC(=O)NC2CCCCCCC2)cc1C .
Completion: n

Prompt: # lookup: test call for CC1(c2cccc(N)c2)OCCO1
Completion: n

Prompt: Look up the recorded call for CC(=O)c1ccc(Oc2cc(C)nc(-n3nc(C)cc3C)n2)cc1 in this test.
Completion: y

Prompt: Record request — test call for CC(OC(=O)c1ccc(Cl)cc1O)C(=O)NCCC1=CCCCC1 (stereo unspecified)
Completion: n

Prompt: How did this test come out for Cc1cc(C)nc(-n2nc(C)cc2NC(=O)c2ccc(F)cc2F)n1 ?
Completion: n

Prompt: What did the test return for O=C1CCCN2N=C(SCC(=O)Nc3ccc(Br)cc3)SC2=N1 ?
Completion: y

Prompt: Short answer needed: outcome of this test for CC(C)OC(=O)c1ccc(NCc2cc(O)ccc2O)cc1Cl ?
Completion: y

Prompt: // outcome(item) with item = O=C(O)c1cc([N+](=O)[O-])c(Nc2cccc3ccccc23)c([N+](=O)[O-])c1
Completion: n

Prompt: Given O=C(O)CC(SCC(=O)Nc1ccc(Br)cc1)C(=O)O (stereo unspecified) , state the outcome it received in this test.
Completion: n

Prompt: Hey, what did the test say about CC(CN1CCOCC1)OC(=O)c1ccc(Cl)cc1Cl (stereo unspecified) ?
Completion: n

Prompt: Any idea what this test logged for O=C(NC(Nc1nc2ccc([N+](=O)[O-])cc2s1)(C(F)(F)F)C(F)(F)F)c1ccccc1 ?
Completion: y

====

test: EBV LMP1-driven NF-kappaB luciferase reporter inhibitors, primary screen, cell-based, luminescence, single point (AID 504558); conditions: LMP1-induced NF-kappaB luciferase reporter cells, at 12.5 µM, active compounds read high;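 further: 0% = neutral control wells and 100% = reference inhibitor control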
About 2,400 (0.69%) of roughly 350,000 compounds were called active. Only a selection was taken, and actives are over-represented in it overall.
I'd be grateful if you could share measured inhibition for these entries.
The reply should contain only the number, in %.

Prompt: Value lookup for inhibition; key = Cc1ccc(CCNC(=O)CN2C(=O)CSc3ccc(S(=O)(=O)N4CCOCC4)cc32)cc1
Completion: -9.19

Prompt: Which inhibition value belongs to CCN(C(=O)Nc1cccc2ccccc12)c1ccccc1 ?
Completion: 2.61

Prompt: What value of measured inhibition is listed for Oc1c(CN2CCCC2)cc(COCc2ccccc2)c2cccnc12 ?
Completion: 69

Prompt: Report inhibition for COc1cccc(/C=C/C(=O)Nc2ccc3c(c2)OCCO3)c1 please.
Completion: 58.7

Prompt: What measured inhibition goes with O=C(/C=C\c1ccc2c(c1)OCO2)NC1(C(=O)Nc2ccc3c(c2)OCCO3)CCCCC1 ?
Completion: -3.03

====

Can you tell me inhibition for the items I'm about to list?
assay: EBV LMP1-driven NF-kappaB luciferase reporter inhibitors, primary screen, cell-based, luminescence, single point (AID 504558); details: LMP1-induced NF-kappaB luciferase reporter cells, at 12.5 µM, active compounds read high;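 further: 0% = neutral control wells and 100% = reference inhibitor control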
The whole screen tested about 350,000 compounds, of which about 2,400 (0.69%) were called active. What follows is part of a selection rich in actives, with near analogues and random picks from the rest.
Could you give me the number in %? Just the number is fine.

Prompt: So what does the record say about inhibition for CCOC(=O)C(=Cc1ccccc1)C(=O)c1ccccc1 ?
Completion: 31.5

Prompt: For O=C(CNC(=O)C(c1ccccc1)c1ccccc1)N/N=C\c1ccc2c(c1)OCO2 , what is its reported inhibition?
Completion: -3.07

Prompt: Consider the compound O=C(O)C(=Cc1ccc([N+](=O)[O-])cc1)CCc1ccccc1 and give its measured inhibition.
Completion: 2.53

Prompt: inhibition lookup needed for C=CCOc1cccc(C2C(C(=O)c3ccc(C)o3)=C(O)C(=O)N2CCN2CCOCC2)c1 (stereo not given) , thanks.
Completion: 1.89

Prompt: Name the reported inhibition value associated with the compound C(=N\Nc1ccc2ccccc2n1)/c1ccc2c(c1)OCO2
Completion: 43.9

Prompt: Param item = CCCNC(=O)C1CC(=O)N(c2ccc(OCc3ccccc3)cc2)C1 (stereo not given) ; retrieve measured inhibition.
Completion: -15.7

Prompt: Which measured inhibition value corresponds to CN1OC[C@@H]2CN(S(=O)(=O)c3cccc(C(F)(F)F)c3)[C@H](c3ccc(-c4cc5ccccc5o4)cc3)C[C@@H]21 ?
Completion: 23.8

Prompt: For the compound shown here, O=C(CSc1ncn[nH]1)Nc1nc2c(F)c(F)c(F)cc2s1 , give the reported inhibition.
Completion: -1.34

Prompt: Given Cc1cccc(NC(=O)/C=C/c2ccc3c(c2)OCO3)n1 , state its recorded inhibition.
Completion: -23.8

Prompt: Need inhibition of Cc1ccsc1C(=O)OCC(=O)c1cc(C)n(CC2CCCO2)c1C (stereo not given) , thanks.
Completion: 63.2

====

assay: EBV LMP1-driven NF-kappaB luciferase reporter inhibitors, primary screen, cell-based, luminescence, single point (AID 504558); conditions: LMP1-induced NF-kappaB luciferase reporter cells, at 12.5 µM, active compounds read high;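 further: 0% = neutral control wells and 100% = reference inhibitor control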
Out of some 350,000 compounds screened, about 2,400 (0.69%) were called active. The sample as a whole holds a higher share of actives than the screen did.
OUTCOME MEASURE: inhibition

Prompt: Which inhibition value is on record for CNC(=S)Nc1ccc([N+](=O)[O-])cc1 ?
Completion: -10.6% (inactive)

Prompt: Sample COC(=O)c1sc(NC(=S)NC(=O)c2ccc(C)cc2)nc1C — what was its inhibition?
Completion: -2.09% (inactive)

Prompt: I am curious: what inhibition value has been reported for O=C1/C(=C\c2ccc([N+](=O)[O-])cc2)CS(=O)(=O)C/C1=C/c1ccc([N+](=O)[O-])cc1 ?
Completion: 92.5% (active)

Prompt: Query (compound): NC(=O)c1sc2nc3c(c(-c4ccccc4)c2c1N)CCC3 ; field requested: inhibition
Completion: 44.3% (active)

Prompt: Bench note: what inhibition did O=C(CCc1ccc(O)cc1)NN=Cc1cc(Br)ccc1O show?
Completion: 6.93% (inactive)

Prompt: # input compound: CC(=O)Nc1ccc(C=Cc2ccc([N+](=O)[O-])cc2)cc1 ; wanted: its inhibition
Completion: -20.1% (inactive)

====

experiment: EBV LMP1-driven NF-kappaB luciferase reporter inhibitors, primary screen, cell-based, luminescence, single point (AID 504558); conditions: LMP1-induced NF-kappaB luciferase reporter cells, at 12.5 µM, active compounds read high;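 further: 0% = neutral control wells and 100% = reference inhibitor control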
Out of some 350,000 compounds screened, about 2,400 (0.69%) were called active. Shown is part of a subset that was picked to be rich in actives.
OUTCOME MEASURE: inhibition (%)
Use % as the unit, but write only the number.

Prompt: Which inhibition is reported for this compound? COc1ccc(NS(=O)(=O)c2ccc(NC(=S)NC(=O)/C=C/c3ccc(C)cc3)cc2)nn1
Completion: -1.1

Prompt: Query (compound): COc1cc(C(=O)OCCCN2CCOCC2)cc(OC)c1OC ; field requested: inhibition
Completion: 1.26

Prompt: What does the record list as inhibition for COc1ccc(NC(=O)CN2C(=O)NC(C)(c3ccccc3)C2=O)cn1 (stereo unspecified) ?
Completion: 4.57

Prompt: Can you look up the measured inhibition of COc1cccc(NC(=S)N(Cc2ccc(C)cc2)Cc2ccccn2)c1 for me?
Completion: -9.16

Prompt: Reported inhibition for CCOc1cc(/C=N/NC(=O)c2ccncc2)cc(Br)c1O : what is it?
Completion: -1.49

Prompt: Look at this compound and give its reported inhibition. Cc1sc2nc(CC(N)=O)[nH]c(=O)c2c1-c1ccccc1
Completion: -10.6

====

test: EBV LMP1-driven NF-kappaB luciferase reporter inhibitors, primary screen, cell-based, luminescence, single point (AID 504558); conditions: LMP1-induced NF-kappaB luciferase reporter cells, at 12.5 µM, active compounds read high;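 further: 0% = neutral control wells and 100% = reference inhibitor control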
Hit rate of the full screen: of about 350,000 compounds, about 2,400 (0.69%) were called active. What follows is part of a selection rich in actives, with near analogues and random picks from the rest.
For each of the compounds below, state its inhibition.
Supply the numeric figure in %, leaving out any unit text.

Prompt: // inhibition lookup, key: O=C(COC(=O)c1ccc(S(=O)(=O)N2CCCCCC2)cc1)Nc1ccccc1C(F)(F)F
Completion: -10.6

Prompt: Item under review: CCN(CC)C(=O)C1=C(C)N(Cc2ccccc2)C(=O)C(CC(=O)NC(c2ccccc2)c2ccccc2)C1 (stereo not given) . Reported inhibition?
Completion: 2.92

Prompt: Entry Clc1ccc2nc(-c3ccccc3)nc(C(Cl)Cl)c2c1 has what inhibition?
Completion: 86.7

Prompt: Which inhibition is listed for O=C(Cc1ccccc1)N1N=C(c2ccncc2)CC1(O)C(F)(F)F (stereo not given) ?
Completion: 4.93

Prompt: // lookup inhibition for Cc1ccc(/C=N/NC(=O)C2=NNC(c3ccccc3)(c3ccccc3)C2)c(O)c1
Completion: 61.6

Prompt: Which inhibition reading was recorded for the compound C[C@H]1CN([C@@H](C)CO)C(=O)CCCn2cc(nn2)CO[C@@H]1CN(C)C(=O)Nc1ccccc1 ?
Completion: -0.0595

Prompt: Field request: inhibition | item: Cc1cccn2c(=O)c3cc(C(=O)NC4CCCCC4)sc3nc12
Completion: -2.71

Prompt: Tell me the measured inhibition of COCCNC(=O)CSc1nc(N)c(NC(=O)c2ccco2)c(=O)[nH]1 , please.
Completion: 2.34

Prompt: Which inhibition reading was recorded for the compound Cc1cccc(-n2ncc(Cl)c(Cl)c2=O)c1 ?
Completion: 52.4

Prompt: For the compound COc1ncnc2c1ncn2CCCNCCN1CCOCC1 , what inhibition is on record?
Completion: -1.37

Prompt: Requested field: inhibition. Item: CCOc1ccc(NS(=O)(=O)c2ccc(C(=O)NCC3CCCO3)cc2)cc1 (stereo not given)
Completion: -2.59

Prompt: Need inhibition of COc1ccccc1C(=O)Nc1cccc(C(=O)N2CCOCC2)c1 , thanks.
Completion: -6.8

Prompt: Look up inhibition: Cc1cccc(-n2ncc3c(=O)[nH]c(SCC(=O)Nc4cc(C)on4)nc32)c1
Completion: -3.93

Prompt: Fill in the blank: the reported inhibition of C[C@@H]1CN([C@@H](C)CO)C(=O)c2cc(Br)cnc2O[C@H]1CN(C)Cc1ccc(-c2ccccc2)cc1 is ____.
Completion: -10.5

Prompt: Dear colleague, I am looking for the recorded inhibition of the following compound: Cc1ccc([C@H]2N[C@]3(CCCN(Cc4ccccc4)C3=O)[C@H]3C(=O)N(Cc4ccccc4)C(=O)[C@@H]23)cc1
Completion: 4.09

Prompt: Quick one: inhibition of C[C@@H]1C[C@@H]2O[C@H]2/C=C\C=C\C(=O)Cc2c(Cl)c(O)cc(O)c2C(=O)O1 ?
Completion: 80

Prompt: Query (compound): CC1(C)CN(Cc2cccnc2)C(=O)[C@H]1CC(=O)Nc1ccc(Br)cc1 ; field requested: inhibition
Completion: -4.33

Prompt: Name the reported inhibition value associated with the compound Cc1ccccc1-n1nc(C)c2cc(C(=O)NC3CC3)sc21
Completion: 48.8

Prompt: Which inhibition reading was recorded for the compound O=C(Nc1ccc(C(=O)N2CCOCC2)cc1)Nc1cccc(C(F)(F)F)c1 ?
Completion: 65.4

Prompt: I'd like to know its inhibition. The compound in question is C[C@H](CO)N1C[C@H](C)[C@@H](CN(C)Cc2ccc3c(c2)OCO3)OCc2cnnn2CCCC1=O
Completion: 4.06
